Cited source for all entries: paper PMC5615838

Assay: toxicokinetics in 90-day toxicity study
Assay type: in vivo, rat
Details: female, Sprague-Dawley [Crl:CD(SD)], rat, plasma, po, 10 mg/kg, AUC0-24h, Day 7, 10 mg/kg bw, F
READOUT NAME: AUC(0-t) (ng·h/mL)
Reply with just the number (in ng·h/mL).

In: # lookup: AUC(0-t) of Cc1noc(C)c1Cn1cc(N2C(=O)CN(Cc3cccc(O)c3)C2=O)cn1
Out: 122

---

Assay: pharmacokinetics and oral bioavailability of S6821
Assay type: in vivo, rat
Settings: male, Sprague-Dawley, rat, plasma, po, 100 mg/kg
READOUT NAME: half-life (h)
Reply with just the number (in h).

In: # lookup: half-life of Cc1noc(C)c1Cn1cc(N2C(=O)CN(Cc3cccc(O)c3)C2=O)cn1 [S6821]
Out: 4.3

---

Assay: pharmacokinetics and oral bioavailability of S6821
Format: in vivo, rat
Details: male, Sprague-Dawley, rat, plasma, iv, 1 mg/kg
READOUT NAME: AUC(0-t) (µg·h/mL)
Reply with just the number (in µg·h/mL).

In: # lookup: AUC(0-t) of Cc1noc(C)c1Cn1cc(N2C(=O)CN(Cc3cccc(O)c3)C2=O)cn1
Out: 0.161

---

Assay: toxicokinetics in 90-day toxicity study
Type: in vivo, rat
Settings: male, Sprague-Dawley [Crl:CD(SD)], rat, plasma, po, 30 mg/kg, Cmax, Week 13, 30 mg/kg bw, M
READOUT NAME: Cmax (ng/mL)
Reply with just the number (in ng/mL).

In: # lookup: Cmax of Cc1noc(C)c1Cn1cc(N2C(=O)CN(Cc3cccc(O)c3)C2=O)cn1 [S6821]
Out: 18.3

---

Assay: toxicokinetics in 90-day toxicity study
Assay type: in vivo, rat
Details: male, Sprague-Dawley, rat, plasma, po, 100 mg/kg, AUC0-24h, Week 6, 100 mg/kg bw, M
READOUT NAME: AUC(0-t) (ng·h/mL)
Reply with just the number (in ng·h/mL).

In: # lookup: AUC(0-t) of Cc1noc(C)c1Cn1cc(N2C(=O)CN(Cc3cccc(O)c3)C2=O)cn1 [S6821]
Out: 758

---

Assay: toxicokinetics in 90-day toxicity study
Assay type: in vivo, rat
Details: female, Sprague-Dawley [Crl:CD(SD)], rat, plasma, po, 100 mg/kg, Cmax, Week 13, 100 mg/kg bw, F
READOUT NAME: Cmax

In: # lookup: Cmax of Cc1noc(C)c1Cn1cc(N2C(=O)CN(Cc3cccc(O)c3)C2=O)cn1
Out: 107 ng/mL

---

Experiment: toxicokinetics in 90-day toxicity study
Format: in vivo, rat
Conditions: male, Sprague-Dawley [Crl:CD(SD)], rat, plasma, po, 100 mg/kg, Cmax, Week 13, 100 mg/kg bw, M
READOUT NAME: Cmax

In: # lookup: Cmax of Cc1noc(C)c1Cn1cc(N2C(=O)CN(Cc3cccc(O)c3)C2=O)cn1
Out: 54.7 ng/mL

---

Assay: toxicokinetics in 90-day toxicity study
Assay type: in vivo, rat
Details: male, Sprague-Dawley, rat, plasma, po, 10 mg/kg, Cmax, Week 6, 10 mg/kg bw, M
READOUT NAME: Cmax (ng/mL)
Reply with just the number (in ng/mL).

In: # lookup: Cmax of Cc1noc(C)c1Cn1cc(N2C(=O)CN(Cc3cccc(O)c3)C2=O)cn1 [S6821]
Out: 10.7

---

Assay: toxicokinetics in 90-day toxicity study
Format: in vivo, rat
Details: female, Sprague-Dawley, rat, plasma, po, 30 mg/kg, Cmax, Week 6, 30 mg/kg bw, F
READOUT NAME: Cmax (ng/mL)
Reply with just the number (in ng/mL).

In: # lookup: Cmax of Cc1noc(C)c1Cn1cc(N2C(=O)CN(Cc3cccc(O)c3)C2=O)cn1
Out: 17.5

---

Test: toxicokinetics in 90-day toxicity study
Format: in vivo, rat
Settings: female, Sprague-Dawley [Crl:CD(SD)], rat, plasma, po, 30 mg/kg, Cmax, Day 7, 30 mg/kg bw, F
READOUT NAME: Cmax (ng/mL)
Reply with just the number (in ng/mL).

In: # lookup: Cmax of Cc1noc(C)c1Cn1cc(N2C(=O)CN(Cc3cccc(O)c3)C2=O)cn1
Out: 27.7

---

Assay: toxicokinetics in 90-day toxicity study
Assay type: in vivo, rat
Settings: male, Sprague-Dawley [Crl:CD(SD)], rat, plasma, po, 100 mg/kg, Cmax, Day 7, 100 mg/kg bw, M
READOUT NAME: Cmax (ng/mL)
Reply with just the number (in ng/mL).

In: # lookup: Cmax of Cc1noc(C)c1Cn1cc(N2C(=O)CN(Cc3cccc(O)c3)C2=O)cn1 [S6821]
Out: 41.4

---

Assay: toxicokinetics in 90-day toxicity study
Type: in vivo, rat
Conditions: female, Sprague-Dawley [Crl:CD(SD)], rat, plasma, po, 100 mg/kg, Cmax, Day 7, 100 mg/kg bw, F
READOUT NAME: Cmax
Please report the result as a number followed by the unit.

In: # lookup: Cmax of Cc1noc(C)c1Cn1cc(N2C(=O)CN(Cc3cccc(O)c3)C2=O)cn1 [S6821]
Out: 99 ng/mL

---

Experiment: pharmacokinetics and oral bioavailability of S6821
Type: in vivo, rat
Settings: male, Sprague-Dawley, rat, plasma, iv, 1 mg/kg
READOUT NAME: clearance (mL/min/kg)
Reply with just the number (in mL/min/kg).

In: # lookup: clearance of Cc1noc(C)c1Cn1cc(N2C(=O)CN(Cc3cccc(O)c3)C2=O)cn1
Out: 105

---

Test: toxicokinetics in 90-day toxicity study
Assay type: in vivo, rat
Settings: female, Sprague-Dawley, rat, plasma, po, 10 mg/kg, AUC0-24h, Week 6, 10 mg/kg bw, F
READOUT NAME: AUC(0-t)
Please report the result as a number followed by the unit.

In: # lookup: AUC(0-t) of Cc1noc(C)c1Cn1cc(N2C(=O)CN(Cc3cccc(O)c3)C2=O)cn1
Out: 113 ng·h/mL

---

Assay: proof of exposure in 28-day study, plasma concentrations
Format: in vivo, rat
Conditions: male, Crl:CD(SD) (Sprague-Dawley), rat, plasma (peripheral blood), oral, 100 mg/kg bw/day
READOUT NAME: concentration at 29 day (ng/mL)
Reply with just the number (in ng/mL).

In: # lookup: concentration at 29 day of Cc1noc(C)c1Cn1cc(N2C(=O)N(Cc3cccc(O)c3)C(C)(C)C2=O)cn1 [S7958]
Out: 18.3

---

Target: CYP2C19 (Homo sapiens, UniProt P33261)
Sequence (P33261 whole entry): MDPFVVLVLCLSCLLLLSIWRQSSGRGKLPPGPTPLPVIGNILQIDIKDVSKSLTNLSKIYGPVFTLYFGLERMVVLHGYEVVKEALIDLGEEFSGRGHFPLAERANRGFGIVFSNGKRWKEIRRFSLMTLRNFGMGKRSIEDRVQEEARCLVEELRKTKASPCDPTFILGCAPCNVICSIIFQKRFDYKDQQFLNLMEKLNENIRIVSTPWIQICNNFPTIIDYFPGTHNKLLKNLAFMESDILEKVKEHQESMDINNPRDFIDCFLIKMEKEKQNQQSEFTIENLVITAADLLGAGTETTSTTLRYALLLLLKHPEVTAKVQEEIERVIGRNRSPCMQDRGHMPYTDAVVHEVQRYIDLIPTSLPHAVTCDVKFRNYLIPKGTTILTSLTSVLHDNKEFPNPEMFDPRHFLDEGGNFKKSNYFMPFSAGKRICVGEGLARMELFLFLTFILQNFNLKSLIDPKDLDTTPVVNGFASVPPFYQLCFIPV
Experiment: CYP inhibition, LC–MS/MS assay in human liver microsomes
Type: in vitro ADME
Conditions: pooled human liver microsomes, probe S-mephenytoin
READOUT NAME: inhibition at 10 µM (%)
Reply with just the number (in %).

[
  {
    "GIVEN SMILES": "Cc1noc(C)c1Cn1cc(N2C(=O)CN(Cc3cccc(O)c3)C2=O)cn1",
    "SYSTEM": "CYP2C19 (Homo sapiens, UniProt P33261)",
    "inhibition at 10 µM [%]": 8
  }
]

Switching to the query record.
In: # lookup: inhibition at 10 µM of Cc1noc(C)c1Cn1cc(N2C(=O)N(Cc3cccc(O)c3)C(C)(C)C2=O)cn1
Out: 17

---

Experiment: proof of exposure in 28-day study, plasma concentrations
Assay type: in vivo, rat
Conditions: male, Crl:CD(SD) (Sprague-Dawley), rat, plasma (peripheral blood), oral, 30 mg/kg bw/day
READOUT NAME: concentration at 29 day (ng/mL)
Reply with just the number (in ng/mL).

In: # lookup: concentration at 29 day of Cc1noc(C)c1Cn1cc(N2C(=O)N(Cc3cccc(O)c3)C(C)(C)C2=O)cn1
Out: 1.79
